# maps each entry to its pIC50
- targetOfAssay: Protein deacetylase HDAC6 (Homo sapiens, UniProt Q9UBN7)
- Sequence (Q9UBN7 whole entry): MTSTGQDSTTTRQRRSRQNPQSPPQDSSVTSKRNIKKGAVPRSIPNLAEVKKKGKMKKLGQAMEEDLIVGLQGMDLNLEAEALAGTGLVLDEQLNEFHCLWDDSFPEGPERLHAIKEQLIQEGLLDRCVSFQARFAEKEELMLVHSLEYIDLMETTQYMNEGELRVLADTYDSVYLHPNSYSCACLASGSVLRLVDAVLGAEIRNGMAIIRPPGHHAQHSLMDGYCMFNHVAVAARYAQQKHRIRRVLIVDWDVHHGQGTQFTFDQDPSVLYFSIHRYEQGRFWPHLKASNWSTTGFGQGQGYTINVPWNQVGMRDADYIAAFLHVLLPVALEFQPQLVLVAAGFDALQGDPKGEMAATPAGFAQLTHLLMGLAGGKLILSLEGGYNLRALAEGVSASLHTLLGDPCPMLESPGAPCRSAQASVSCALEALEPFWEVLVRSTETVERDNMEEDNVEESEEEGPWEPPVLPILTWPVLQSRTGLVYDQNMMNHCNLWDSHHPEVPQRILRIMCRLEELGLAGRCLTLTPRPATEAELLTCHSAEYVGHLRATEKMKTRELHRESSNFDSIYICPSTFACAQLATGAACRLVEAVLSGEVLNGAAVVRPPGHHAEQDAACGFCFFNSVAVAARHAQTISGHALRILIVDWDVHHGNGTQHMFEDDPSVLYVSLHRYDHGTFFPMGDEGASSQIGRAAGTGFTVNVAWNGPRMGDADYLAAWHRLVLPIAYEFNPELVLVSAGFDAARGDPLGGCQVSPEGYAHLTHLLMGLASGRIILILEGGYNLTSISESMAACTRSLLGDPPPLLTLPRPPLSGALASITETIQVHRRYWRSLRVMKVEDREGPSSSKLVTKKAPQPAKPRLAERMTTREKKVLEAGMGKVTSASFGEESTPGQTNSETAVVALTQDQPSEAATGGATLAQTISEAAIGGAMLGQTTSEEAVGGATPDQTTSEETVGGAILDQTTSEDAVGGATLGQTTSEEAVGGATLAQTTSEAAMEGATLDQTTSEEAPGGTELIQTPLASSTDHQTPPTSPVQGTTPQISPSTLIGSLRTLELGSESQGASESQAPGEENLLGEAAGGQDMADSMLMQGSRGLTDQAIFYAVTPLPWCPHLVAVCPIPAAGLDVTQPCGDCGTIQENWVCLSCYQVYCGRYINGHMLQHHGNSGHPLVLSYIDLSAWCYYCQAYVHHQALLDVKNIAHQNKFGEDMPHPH
- assayRemarks: Inhibition of human recombinant HDAC6 using Boc-Lys(Ac)-AMC as substrate after 30 mins by fluorescence assay
Interpret pIC50 as the negative base-10 log of the concentration measured in mol/L.

>  <smilesRepresentation>
C[C@]12CC[C@@H]3c4ccc(O)cc4C[C@@H](CCCCCCCCCCC(=O)NO)[C@H]3[C@@H]1CC[C@@H]2O

>  <measValue>
5.94

$$$$

Req: Return pIC50 measured with Protein deacetylase HDAC6 (Homo sapiens, UniProt Q9UBN7) given this molecule: CCCCN(O)C(=O)c1cccc(NC(=O)CCCCCS[C@@H]2Cc3cc(O)ccc3[C@H]3CC[C@]4(C)[C@@H](O)CC[C@H]4[C@@H]32)c1
Resp: 4.36

---

- targetOfAssay: UniProtKB O15379
- Sequence (O15379 whole entry): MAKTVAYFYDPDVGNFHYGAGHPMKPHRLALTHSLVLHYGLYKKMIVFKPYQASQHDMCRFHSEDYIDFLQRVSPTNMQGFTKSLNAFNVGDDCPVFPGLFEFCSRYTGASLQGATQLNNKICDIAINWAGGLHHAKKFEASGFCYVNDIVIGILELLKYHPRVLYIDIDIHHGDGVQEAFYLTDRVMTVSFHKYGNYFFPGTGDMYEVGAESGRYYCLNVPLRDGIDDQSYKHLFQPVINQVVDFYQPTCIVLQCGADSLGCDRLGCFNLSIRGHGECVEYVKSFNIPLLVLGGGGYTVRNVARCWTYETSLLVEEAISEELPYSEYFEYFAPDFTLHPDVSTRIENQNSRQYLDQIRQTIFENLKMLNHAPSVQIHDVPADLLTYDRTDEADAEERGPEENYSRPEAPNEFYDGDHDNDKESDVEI
- assayRemarks: Inhibition of human recombinant HDAC3 using Boc-Lys(Ac)-AMC as substrate after 30 mins by fluorescence assay
property: pIC50
Interpret pIC50 as the negative base-10 log of the concentration measured in mol/L.

>  <smilesRepresentation>
C[C@]12CC[C@@H]3c4ccc(O)cc4C[C@@H](CCCCCCCCCCC(=O)Nc4ccccc4N)[C@H]3[C@@H]1CC[C@@H]2O

>  <measValue>
5.50

$$$$

Req: So what's the measured pIC50 for this one? CCCCN(O)C(=O)c1cccc(NC(=O)CCCCCS[C@@H]2Cc3cc(O)ccc3[C@H]3CC[C@]4(C)[C@@H](O)CC[C@H]4[C@@H]32)c1
Resp: 5.81

Req: So what's the measured pIC50 for this one? C[C@]12CC[C@@H]3c4ccc(O)cc4C[C@@H](CCCCCCCCCCC(=O)NO)[C@H]3[C@@H]1CC[C@@H]2O
Resp: 6.02

---

# maps each entry to its IC50
- targetOfAssay: Estrogen receptor (Homo sapiens, UniProt P03372)
- Sequence (P03372 whole entry, the tested form may be a part): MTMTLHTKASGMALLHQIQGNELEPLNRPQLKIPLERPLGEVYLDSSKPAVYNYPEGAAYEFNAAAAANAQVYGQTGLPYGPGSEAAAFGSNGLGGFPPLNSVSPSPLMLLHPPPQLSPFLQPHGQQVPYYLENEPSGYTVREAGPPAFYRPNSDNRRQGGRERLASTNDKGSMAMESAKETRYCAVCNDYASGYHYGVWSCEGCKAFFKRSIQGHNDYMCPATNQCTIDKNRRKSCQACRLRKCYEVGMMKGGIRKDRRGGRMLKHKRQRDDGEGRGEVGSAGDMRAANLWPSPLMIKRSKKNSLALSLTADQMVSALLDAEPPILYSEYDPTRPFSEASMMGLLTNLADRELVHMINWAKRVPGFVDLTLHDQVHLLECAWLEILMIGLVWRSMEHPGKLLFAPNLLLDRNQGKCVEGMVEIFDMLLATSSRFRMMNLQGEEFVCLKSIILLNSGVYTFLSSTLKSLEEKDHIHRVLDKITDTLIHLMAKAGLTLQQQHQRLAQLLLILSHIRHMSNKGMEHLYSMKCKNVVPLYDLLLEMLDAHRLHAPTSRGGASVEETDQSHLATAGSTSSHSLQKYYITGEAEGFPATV
- assayRemarks: Antagonist activity at ERalpha in human T47D-KBLuc cells assessed as inhibition of E2-induced transcriptional activity by luciferase reporter gene assay
- Assay type: cell-based
State the answer as a number, implicitly in nM.

Completed entries (count: 3):
>  <smilesRepresentation>
C[C@]12CC[C@@H]3c4ccc(O)cc4C[C@@H](CCCCCCCCCCC(=O)NO)[C@H]3[C@@H]1CC[C@@H]2O

>  <outputUnit>
nM

>  <IC50>
1060

$$$$
>  <smilesRepresentation>
CCCCN(O)C(=O)CCCCCCCCCC[C@@H]1Cc2cc(O)ccc2[C@H]2CC[C@]3(C)[C@@H](O)CC[C@H]3[C@H]12

>  <outputUnit>
nM

>  <IC50>
2100

$$$$
>  <smilesRepresentation>
CCCCN(O)C(=O)c1cccc(NC(=O)CCCCCS[C@@H]2Cc3cc(O)ccc3[C@H]3CC[C@]4(C)[C@@H](O)CC[C@H]4[C@@H]32)c1

>  <outputUnit>
nM

>  <IC50>
180

$$$$

Please examine the following record next.
Req: So what's the measured IC50 for this one? C[C@]12CC[C@@H]3c4ccc(O)cc4C[C@@H](CCCCCCCCCCC(=O)Nc4ccccc4N)[C@H]3[C@@H]1CC[C@@H]2O
Resp: 720

---

# maps each entry to its IC50
- targetOfAssay: Estrogen receptor (Homo sapiens)
- assayRemarks: Antagonist activity at luciferase-fused ERalpha in human HEK293 cells expressing eYFP assessed as reduction of E2-induced estrogenic activity after 2 hrs by BRET assay
- Assay type: cell-based
State the answer as a number, implicitly in nM.

>  <smilesRepresentation>
CCCCN(O)C(=O)c1cccc(NC(=O)CCCCCS[C@@H]2Cc3cc(O)ccc3[C@H]3CC[C@]4(C)[C@@H](O)CC[C@H]4[C@@H]32)c1

>  <measValue>
50

$$$$

Req: So what's the measured IC50 for this one? CCCCN(O)C(=O)CCCCCCCCCC[C@@H]1Cc2cc(O)ccc2[C@H]2CC[C@]3(C)[C@@H](O)CC[C@H]3[C@H]12
Resp: 2550

Req: So what's the measured IC50 for this one? C[C@]12CC[C@@H]3c4ccc(O)cc4C[C@@H](CCCCCCCCCCC(=O)Nc4ccccc4N)[C@H]3[C@@H]1CC[C@@H]2O
Resp: 210

Req: So what's the measured IC50 for this one? C[C@]12CC[C@@H]3c4ccc(O)cc4C[C@@H](CCCCCCCCCCC(=O)NO)[C@H]3[C@@H]1CC[C@@H]2O
Resp: 510

Each recorded value in this set is attributed to ChEMBL document CHEMBL3734665.
